These data points were gathered from patent US20240360228A1.

Biological target: T1, human chemokine (C-C motif) receptor 8 (CCR8) (human, UniProt P51685 1-355)
T1 construct: On human peripheral blood lymphocytes / PBMC (native) or on human CCR8 GFP-transfected Ba/F3 cells; also called hCCR8; human CCR8
T1 sequence (P51685 whole entry): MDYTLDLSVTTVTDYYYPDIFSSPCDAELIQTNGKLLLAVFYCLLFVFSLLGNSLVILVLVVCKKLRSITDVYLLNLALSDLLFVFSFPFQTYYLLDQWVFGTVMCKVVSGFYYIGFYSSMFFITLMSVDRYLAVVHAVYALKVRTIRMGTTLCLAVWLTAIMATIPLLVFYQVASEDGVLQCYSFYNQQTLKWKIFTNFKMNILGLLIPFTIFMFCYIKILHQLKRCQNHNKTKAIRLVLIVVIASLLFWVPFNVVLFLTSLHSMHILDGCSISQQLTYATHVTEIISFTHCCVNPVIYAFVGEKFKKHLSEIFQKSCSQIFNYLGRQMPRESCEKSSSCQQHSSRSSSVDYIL
Experiment: flow cytometry blocking, PBMC CCR8+ CD4+ cells; competitor PE-AB3 (its MFI is read)
Reported MFI values for the following binders.
Give a plain numeric answer without units written out.

Some binders with recorded MFI:
1) AB10 (antibody, V domains shown, Hybridoma monoclonal; also called antibody 10; clone 10) VH: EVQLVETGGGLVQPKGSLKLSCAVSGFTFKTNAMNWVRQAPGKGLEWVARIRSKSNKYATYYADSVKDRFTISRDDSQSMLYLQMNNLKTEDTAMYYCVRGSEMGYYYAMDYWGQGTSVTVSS VL: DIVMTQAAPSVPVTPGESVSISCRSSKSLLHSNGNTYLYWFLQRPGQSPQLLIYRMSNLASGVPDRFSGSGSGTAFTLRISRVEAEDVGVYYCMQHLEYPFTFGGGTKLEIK: 961
2) AB1 (antibody, V domains shown, Hybridoma monoclonal (mice or rats immunised); Used purified and PE-conjugated; also called antibody 1; clone 1) VH: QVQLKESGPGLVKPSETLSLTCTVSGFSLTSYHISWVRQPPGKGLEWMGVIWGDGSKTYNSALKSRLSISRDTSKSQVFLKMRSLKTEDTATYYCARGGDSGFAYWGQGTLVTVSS VL: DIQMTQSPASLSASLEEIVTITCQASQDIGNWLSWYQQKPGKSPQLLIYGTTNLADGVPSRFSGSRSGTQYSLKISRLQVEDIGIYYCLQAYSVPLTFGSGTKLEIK: 359
3) AB12 (antibody, V domains shown, Hybridoma monoclonal; also called antibody 12; clone 12) VH: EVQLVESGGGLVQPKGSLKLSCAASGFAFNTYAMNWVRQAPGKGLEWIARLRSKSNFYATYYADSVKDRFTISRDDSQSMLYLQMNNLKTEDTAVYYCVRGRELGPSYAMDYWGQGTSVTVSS VL: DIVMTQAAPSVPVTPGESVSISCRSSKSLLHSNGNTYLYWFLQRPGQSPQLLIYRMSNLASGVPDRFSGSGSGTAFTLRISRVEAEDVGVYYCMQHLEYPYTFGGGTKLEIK: 885
4) AB14 (antibody, V domains shown, Hybridoma monoclonal; also called antibody 14; clone 14) VH: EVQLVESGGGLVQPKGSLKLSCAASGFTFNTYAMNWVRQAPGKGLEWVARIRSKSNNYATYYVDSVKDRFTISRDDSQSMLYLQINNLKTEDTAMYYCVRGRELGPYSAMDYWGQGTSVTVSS VL: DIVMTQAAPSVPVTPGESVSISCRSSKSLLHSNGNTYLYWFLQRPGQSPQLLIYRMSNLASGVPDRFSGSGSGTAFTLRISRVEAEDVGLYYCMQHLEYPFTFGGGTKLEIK: 855

Field: next binder
Asked: Specify reported MFI for the binder shown: AB15 (antibody, V domains shown, Hybridoma monoclonal; also called antibody 15; clone 15) VH: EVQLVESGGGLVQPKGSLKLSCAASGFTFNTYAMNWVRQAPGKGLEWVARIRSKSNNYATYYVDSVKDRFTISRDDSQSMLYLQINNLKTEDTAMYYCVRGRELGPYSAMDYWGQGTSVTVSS VL: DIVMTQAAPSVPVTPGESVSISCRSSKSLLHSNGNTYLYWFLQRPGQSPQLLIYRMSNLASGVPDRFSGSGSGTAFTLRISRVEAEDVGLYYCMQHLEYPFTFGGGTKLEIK
Given back: 1120
